target_or_system: K18-ΔK280 aggregates (Homo sapiens (Human), UniProt P10636, DEL597-597)
Sequence (P10636 other isoform, or with tags, fused parts or gaps del 597-597): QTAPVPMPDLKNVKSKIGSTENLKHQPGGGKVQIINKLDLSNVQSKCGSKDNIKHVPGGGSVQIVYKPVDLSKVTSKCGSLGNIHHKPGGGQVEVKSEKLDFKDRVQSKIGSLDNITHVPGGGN
method: Saturation binding test of THK-5105
run_conditions: [^18F] THK-5105 0.1 to 100 nM, K18-ΔK280 aggregates 200 nM, room temperature, one hour; read-out: dissociation constant Kd
measurement_label: Kd (nM)
Number only, in nM; omit the unit.

Could you tell me which Kd is on file for CN(C)c1ccc(-c2ccc3cc(OCC(O)CF)ccc3n2)cc1 (stereo not shown) ? 3.9

---

target_or_system: K18-ΔK280 aggregates (Homo sapiens (Human), UniProt P10636, DEL597-597)
method: Competitive binding test using [^18F] THK-5105 as radioactive competitor
run_conditions: radioactive ligand [^18F] THK-5105 1.76 nM, K18-ΔK280 aggregates 200 nM, room temperature, one hour
measurement_label: Ki (nM)
Could you give me the number in nM? Just the number is fine.

Some entries whose results are on file:
>>> test_value("Nc1ccc(-c2ccc3cc(OCCF)ccc3n2)cc1 [THK-523, reference compound]")
59.3
>>> test_value("CCNc1ccc(-c2ccc3cc(OCC(O)CF)ccc3n2)cc1 (centres unmarked)")
9.2
>>> test_value("CNc1ccc(-c2ccc3cc(OCC(O)CF)ccc3n2)cc1 (centres unmarked)")
10.5
>>> test_value("Nc1ccc(-c2ccc3cc(OCC(O)CF)ccc3n2)cc1 (centres unmarked)")
36
>>> test_value("CCN(CC)c1ccc(-c2ccc3cc(OCC(O)CF)ccc3n2)cc1 (centres unmarked)")
34.9

For the record CNc1ccc(-c2ccc3cc(OCC(O)CF)ccc3n2)cn1 (centres unmarked) , what value of Ki is listed for K18-ΔK280 aggregates (Homo sapiens (Human), UniProt P10636, DEL597-597)? 40.1

Recorded Ki for CC(=C(C#N)C#N)c1ccc2cc(N(C)CCF)ccc2c1 [FDDNP, reference compound] with K18-ΔK280 aggregates (Homo sapiens (Human), UniProt P10636, DEL597-597), please? 256

Short answer please: Ki, K18-ΔK280 aggregates (Homo sapiens (Human), UniProt P10636, DEL597-597), entry CN(C)c1ccc(-c2ccc3cc(OCC(O)CF)ccc3n2)cn1 (centres unmarked) 21.4
